MEASURED_TARGET: IGFR kinase (Homo sapiens)
Construct: purchased Millipore
Sequence (P08069 31-1367): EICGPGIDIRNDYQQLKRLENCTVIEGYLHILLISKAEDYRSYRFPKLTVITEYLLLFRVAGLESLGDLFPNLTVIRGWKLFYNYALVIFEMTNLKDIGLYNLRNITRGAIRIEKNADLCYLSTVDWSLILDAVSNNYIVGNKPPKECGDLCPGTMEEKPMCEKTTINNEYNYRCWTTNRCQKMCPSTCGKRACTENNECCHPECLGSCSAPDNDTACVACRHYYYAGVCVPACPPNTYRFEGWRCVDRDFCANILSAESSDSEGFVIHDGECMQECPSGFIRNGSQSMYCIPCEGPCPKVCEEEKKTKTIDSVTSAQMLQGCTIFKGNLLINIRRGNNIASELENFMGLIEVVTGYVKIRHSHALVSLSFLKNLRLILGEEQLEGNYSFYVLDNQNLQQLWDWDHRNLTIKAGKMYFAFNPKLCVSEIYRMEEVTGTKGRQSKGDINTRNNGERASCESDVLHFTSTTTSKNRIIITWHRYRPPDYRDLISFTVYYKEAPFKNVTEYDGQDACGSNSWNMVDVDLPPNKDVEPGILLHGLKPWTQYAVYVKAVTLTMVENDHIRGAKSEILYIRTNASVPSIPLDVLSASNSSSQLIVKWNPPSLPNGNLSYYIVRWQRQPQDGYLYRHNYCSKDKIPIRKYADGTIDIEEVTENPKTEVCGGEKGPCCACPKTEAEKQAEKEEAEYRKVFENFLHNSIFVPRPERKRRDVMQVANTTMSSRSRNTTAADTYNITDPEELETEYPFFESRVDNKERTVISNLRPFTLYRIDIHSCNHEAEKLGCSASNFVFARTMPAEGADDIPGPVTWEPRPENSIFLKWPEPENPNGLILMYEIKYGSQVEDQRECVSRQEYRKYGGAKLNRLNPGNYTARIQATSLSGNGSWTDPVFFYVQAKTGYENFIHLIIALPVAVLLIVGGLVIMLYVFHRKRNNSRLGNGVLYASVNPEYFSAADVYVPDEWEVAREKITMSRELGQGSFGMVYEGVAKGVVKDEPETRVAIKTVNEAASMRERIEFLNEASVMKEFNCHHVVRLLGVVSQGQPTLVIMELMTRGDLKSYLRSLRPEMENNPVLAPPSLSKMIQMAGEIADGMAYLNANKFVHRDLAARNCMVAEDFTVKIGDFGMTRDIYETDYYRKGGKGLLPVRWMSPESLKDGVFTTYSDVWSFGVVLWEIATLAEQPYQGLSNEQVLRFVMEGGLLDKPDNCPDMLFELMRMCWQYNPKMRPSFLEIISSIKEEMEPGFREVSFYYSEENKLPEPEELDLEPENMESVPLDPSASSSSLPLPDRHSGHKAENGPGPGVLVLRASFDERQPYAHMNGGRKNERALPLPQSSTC
TEST_METHOD_NOTES: Enzyme assay (c), IGFR kinase, Caliper LabChip
Assay type: biochemical
CONDITIONS_USED: 30 nM IGFR kinase, 6 uM ATP, 3 uM peptide mix; read-out: IGFR IC50
Listing of entries alongside the reported IC50.
MEASURED_ATTRIBUTE: IC50 (nM)

1) COc1cc(N2CC[C@H](N(C)C)C2)ccc1Nc1ncc(Cl)c(-c2cnc3ccccn23)n1 | 43
2) COc1cc(O[C@H]2CCN(S(C)(=O)=O)C2)ccc1Nc1ncc(Cl)c(-c2cnc3ccccn23)n1 | 19
3) COc1cc(C2CCN(C(=O)CO)CC2)ccc1Nc1ncc(C)c(-c2cnn3ccccc23)n1 | 16
4) COc1ccc(N2CCN(C(=O)CN(C)C)CC2)cc1Nc1ncc(C)c(-c2cnn3ccccc23)n1 | 49
5) COc1cc(N2CCN(C[C@H](O)CO)CC2)ccc1Nc1ncc(C)c(-c2cnc3ccccn23)n1 | 23
6) COc1cc(CN2CC(O)C2)ccc1Nc1ncc(Cl)c(-c2cnc3ccccn23)n1 | 22
7) COc1ccc(OC[C@H]2CCCN2C(C)=O)cc1Nc1ncc(Cl)c(-c2cnc3ccccn23)n1 | 58
8) COc1cc(N2CCN(C(C)=O)CC2)ccc1Nc1ncc(Cl)c(-c2cnc3cc(CN(C)C(C)=O)ccn23)n1 | 120
9) COc1cc(N2CCN(CCO)[C@@H](C)C2)ccc1Nc1ncc(C)c(-c2cnc3ccccn23)n1 | 190
10) CC(=O)N1CCN(c2ccc(Nc3ncc(Cl)c(-c4cnc5ccccn45)n3)c(OC(C)C)c2)CC1 | 22
11) COc1cc(N2CCN(CCO)CC2)ccc1Nc1ncc(Cl)c(-c2cnc3ccc(F)cn23)n1 | 7
12) COc1cc(N2CC3CN(CCO)CC(C2)O3)ccc1Nc1ncc(Cl)c(-c2cnn3ccccc23)n1 | 5
13) COCCN1CCN(CCOc2ccc(Nc3ncc(Cl)c(-c4cnc5ccccn45)n3)c(OC)c2)CC1 | 44
14) COc1cc(N2CC3CN(CCS(C)(=O)=O)CC(C2)O3)ccc1Nc1ncc(Cl)c(-c2cnc3c(F)cccn23)n1 | 19
15) COc1cc(C(CO)CO)ccc1Nc1ncc(Cl)c(-c2cnc3c(F)cccn23)n1 | 21
16) COc1cc(CC(=O)O)ccc1Nc1ncc(Cl)c(-c2cnc3ccccn23)n1 [Example 34A] | 132

Each recorded value in this set is attributed to patent US20100105655A1.
